# targetEntity: BaF3 (T315I mutant) (Homo sapiens, UniProt P00519, T315I, cells depend on it)
# assayName: WST (CCK-8) anti-proliferative assay, BaF3 T315I mutant
# reportedConditions: read-out: BaF3 (T315I mutant), 72 h treatment, CCK-8 readout OD 450 nm

molecule	GI50
CC(=O)NC1CCC2c3cc(C(=O)Nc4ccc(OC(F)(F)Cl)cc4)cc(-c4cncnc4)c3N(C(C)C)C12 (stereo not drawn)	44 nM
CC(C)N1c2c(-c3ccn[nH]3)cc(C(=O)Nc3ccc(OC(F)(F)Cl)cc3)cc2C2CCC(N3CCNC3=O)C21 (stereo not drawn)	77 nM
CC(=O)N[C@@H]1CC[C@H]2c3cc(C(=O)Nc4ccc(OC(F)(F)Cl)cc4)cc(-c4cncc(C#N)c4)c3N(C(C)C)[C@@H]12	16 nM
CC(C)N1c2c(-c3ccn[nH]3)cc(C(=O)Nc3ccc(OC(F)(F)Cl)cc3)cc2C2CCC(NC(=O)C3CCOCC3)C21 (stereo not drawn)	40 nM
CC(C)N1c2c(-c3ccn[nH]3)cc(C(=O)Nc3ccc(OC(F)(F)Cl)cc3)cc2C2CCC(NC(=O)N3CCN(C)CC3)C21 (stereo not drawn)	208 nM
CC(=O)NC1CCC2c3cc(C(=O)Nc4ccc(OC(F)(F)Cl)cc4)cc(-c4cncc(F)c4)c3N(C3CCCC3)C12 (stereo not drawn)	43 nM
CC(=O)N[C@@H]1CC[C@H]2c3cc(C(=O)Nc4ccc(OC(F)(F)Cl)cc4)cc(-c4cncc(C)c4)c3N(C(C)C)[C@@H]12	39 nM
CC(C)N1c2c(-c3ccn[nH]3)cc(C(=O)Nc3ccc(OC(F)(F)Cl)cc3)cc2C2CC(O)C(O)C21 (stereo not drawn)	177 nM
CC(C)N1c2c(-c3ccn[nH]3)cc(C(=O)Nc3ccc(OC(F)(F)Cl)cc3)cc2C2CCCC21 (stereo not drawn)	354 nM
CC(=O)N[C@@H]1CC[C@H]2c3cc(C(=O)Nc4ccc(OC(F)(F)Cl)cc4)cc(-c4ccn[nH]4)c3N(CC(C)(C)C)[C@@H]12	21 nM
CC(C)N1c2c(-c3ccn[nH]3)cc(C(=O)Nc3ccc(OC(F)(F)Cl)cc3)cc2C2CCC(NC(=O)CCC(=O)O)C21 (stereo not drawn)	5710 nM
CC(C)N1c2c(-c3ccn[nH]3)cc(C(=O)Nc3ccc(OC(F)(F)Cl)cc3)cc2[C@@H]2CCS(=O)(=O)C[C@@H]21	45 nM
CC(=O)NC1CCC2c3cc(C(=O)Nc4ccc(OC(F)(F)Cl)cc4)cc(-c4ccn[nH]4)c3N(CC(C)C)C12 (stereo not drawn)	81 nM
CC(=O)N[C@@H]1CC[C@H]2c3cc(C(=O)Nc4ccc(OC(F)(F)Cl)cc4)cc(-c4cnc(C)nc4)c3N(CC(C)(C)C)[C@@H]12	56 nM
CC(=O)N[C@@H]1CC[C@H]2c3cc(C(=O)Nc4ccc(OC(F)(F)Cl)cc4)cc(-c4cncnc4)c3N(C(C)C)[C@@H]12	29 nM
